Give measured pIC50 for each item. Keep answers brief.
target: recombinant N-terminal MLH1 (residues 15-340) (Homo sapiens); construct: recombinant N-terminal MLH1 (residues 15-340); assay: Fluorescence Polarisation Assay for MLH1; conditions: fluorescence polarisation probe displacement; 100 nM N-terminal MLH1, 5 nM probe compound
Sequence (P40692 15-340): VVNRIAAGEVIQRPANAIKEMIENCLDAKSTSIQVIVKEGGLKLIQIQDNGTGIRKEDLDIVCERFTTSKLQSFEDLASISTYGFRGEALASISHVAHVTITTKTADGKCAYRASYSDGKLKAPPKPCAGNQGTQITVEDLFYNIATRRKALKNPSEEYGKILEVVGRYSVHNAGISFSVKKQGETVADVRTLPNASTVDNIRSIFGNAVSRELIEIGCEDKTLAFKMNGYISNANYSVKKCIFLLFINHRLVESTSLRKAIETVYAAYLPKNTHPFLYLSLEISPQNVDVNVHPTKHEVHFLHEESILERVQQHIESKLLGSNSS
pIC50: −log10 of the molar value.

Entry O=C(c1c(O)cc(O)cc1OCc1ccccn1)N1CCc2cccc(NC3COC3)c2C1 : reported pIC50 = ? > 6.00

Do the same for CNCc1ccc2c(c1)CN(C(=O)c1c(O)cc(O)cc1OCc1ccccc1)C2 please > 6.00

Do the same for CC(=O)N1CC(Nc2cccc3c2CN(C(=O)c2c(O)cc(O)cc2OCc2ccccc2)CC3)C1 please > 6.00

Do the same for CC(=O)Nc1cccc2c1CN(C(=O)c1c(O)cc(O)cc1OCc1ccccc1)CC2 please 5.00 to 6.00

Do the same for COc1cc2c(c(NC3CCOC3)c1)CN(C(=O)c1c(O)cc(O)cc1OCc1ccccc1)CC2 (centres unmarked) [Example 54] please > 6.00
